- target: human β2 adrenergic receptor (human, UniProt P07550 1-413)
- assay.remarks: cell-based or functional assay
measurement.kind: max Ca2+ signal, COS-7, FLIPR; agonist NE (fluorescence units)
One number for each entry, in fluorescence units.

Exam item: Identify the reported max Ca2+ signal, COS-7, FLIPR; agonist NE for the following entry. C. elegans Gαq/s9 (other) MACCLSEEAREQKRINQEIEKQLQRDKRNARRELKLLLLGTGESGKSTFIKQMRIIHGQGYSEEDKRAHIRLVYQNVFMAIQSMIRAMDTLDIKFGNESEELQEKAAVVREVDFESVTSFEEPYVSYIKELWEDSGIQECYDRRREYQLTDSAKYYLSDLRRLAVPDYLPTEQDILRVRVPTTGIIEYPFDLEQIIFRMVDVGGQRSERRKWIHCFENVTSIMFLVALSEYDQVLVECDNENRMEESKALFRTIITYPWFTNSSVILFLNKKDLLEEKILYSHLADYFPEYDGPPRDPIAAREFILKMFVDLNPDADKIIYSHFTCATDTENIRFVFAAVKDTILQMHLRQYELL
Marked response: 3110

FYI, the data here is from patent US7067277.
